- Test system: ducksalad (Heteranthera limosa)
- protocol-text: Test B flooded paddy test, visual rating
- Format: in vivo
- run-parameters: Flood, 250 g ai/ha, applied to paddy water, rated after 13 to 15 d
measured-metric: Ducksalad plant response rating (0 to 100 scale, 0 is no effect, 100 is complete control)
Keep the answer to the number alone.

Would you mind telling me what Ducksalad plant response rating (0 to 100 scale, 0 is no effect, 100 is complete control) value was observed for COC(=O)Oc1c(C)nn(C)c(=O)c1-c1ccc(Cl)c2ccsc12 ?
0

----------
Recorded Plant response rating (0 to 100 scale), Barnyardgrass, one value per entry.
- System: barnyardgrass (Echinochloa crus-galli)
- protocol-text: Test A preemergence, directed soil spray, visual injury rating
- Type: in vivo
- run-parameters: 125 g ai/ha, 0 is no effect, 100 is complete control

Observe how each entry below is paired with its result.
COC(=O)Oc1c(C)nn(C)c(=O)c1-c1ccc(Cl)c2cc(C)oc12 : 20
CCC(=O)Oc1c(C)nn(C)c(=O)c1-c1c(C)ccc2sccc12 : 10
Cc1nn(C)c(=O)c(-c2c(C)sc3ncccc23)c1OC(=O)OC(C)C : 0
CCc1sc2ncccc2c1-c1c(OC(=O)C2CC2)c(C)nn(C)c1=O : 0
CCOC(=O)Oc1c(C)nn(C)c(=O)c1-c1c(C)sc2ncccc12 : 0

Would you mind telling me what Plant response rating (0 to 100 scale), Barnyardgrass value was observed for CC(=O)Oc1c(C)nn(C)c(=O)c1-c1c(C(F)(F)F)ccc2cc(C)oc12 ?
20

Another compound to check: Cc1ccc2ccoc2c1-c1c(O)c(C)nn(C)c1=O
10

Another compound to check: CCc1sc2ncccc2c1-c1c(OC(=O)OC(C)C)c(C)nn(C)c1=O
0

Another compound to check: CCC(=O)Oc1c(C)nn(C)c(=O)c1-c1c(C)ccc2cc(C)oc12
10

Another compound to check: CCOC(=O)Oc1c(C)nn(C)c(=O)c1-c1c(C)sc2ncc(C)cc12
0

Another compound to check: Cc1ccc2sc(Cl)cc2c1-c1c(O)c(C)nn(C)c1=O
50

Another compound to check: CCc1sc2ncccc2c1-c1c(O)c(C)nn(C)c1=O
0

Another compound to check: Cn1nc(Cl)c(O)c(-c2cccc3[nH]nnc23)c1=O
0

Another compound to check: CCC(=O)Oc1c(C)nn(C)c(=O)c1-c1ccc(Cl)c2ccsc12
0

Another compound to check: Cn1nc(Cl)c(O)c(-c2cccc3c2nnn3C)c1=O
0

Another compound to check: Cc1cc2c(-c3c(OC(=O)c4ccccc4)c(C)nn(C)c3=O)ccc(Cl)c2o1
0

Another compound to check: CC(=O)Oc1c(Cl)nn(C)c(=O)c1-c1cccc2cccnc12
20

Another compound to check: Cc1nn(C)c(=O)c(-c2ccc(Cl)c3ccsc23)c1O
0

Another compound to check: CC(=O)Oc1c(C)nn(C)c(=O)c1-c1cncc2ccccc12
0

----------
Recorded pest or weed control at 125 g/ha, one value per entry.
- Tested on: pigweed (Amaranthus retroflexus)
- protocol-text: Test A postemergence application, visual injury rating
- Assay type: in vivo
- run-parameters: Amaranthus retroflexus, post-emergence, 240 h, 125 g ai/ha, 0 to 100 scale, 0 no effect, 100 complete control, read-out: Pigweed plant response rating
Answer in %, number only, no unit symbol.

Observe how each entry below is paired with its result.
CC(=O)Oc1c(C)nn(C)c(=O)c1-c1c(C)ccc2cc(C)oc12 [Compound 11] : 90
Cn1nc(Cl)c(O)c(-c2nccc3ccccc23)c1=O [Compound 67] : 50
Cc1nn(C)c(=O)c(-c2cccc3snc(C)c23)c1O [Compound 25] : 90
Cc1cc2ccc(C)c(-c3c(O)c(C)nn(C)c3=O)c2o1 [Compound 10] : 90

Would you mind telling me what pest or weed control at 125 g/ha value was observed for Cc1ccc2sccc2c1-c1c(O)c(C)nn(C)c1=O [Compound 29] ?
90

----------
- System: foxtail, giant (giant foxtail, Setaria faberii)
- protocol-text: Test A postemergence application, visual injury rating
- Type: in vivo
- run-parameters: Setaria faberi, post-emergence, 240 h, 125 g ai/ha, 0 to 100 scale, 0 no effect, 100 complete control, read-out: Foxtail, Giant plant response rating
measured-metric: pest or weed control at 125 g/ha (%)
Answer in %, number only, no unit symbol.

Cn1nc(Cl)c(O)c(-c2nccc3ccccc23)c1=O [Compound 67] : 0
Cc1cc2cccc(-c3c(O)c(C)nn(C)c3=O)c2o1 [Compound 12] : 20

Would you mind telling me what pest or weed control at 125 g/ha value was observed for Cc1ccc2sccc2c1-c1c(O)c(C)nn(C)c1=O [Compound 29] ?
20

Another molecule to check: COc1c(C)nn(C)c(=O)c1-c1ccc(F)c2ccoc12 [Compound 69]
0

Another molecule to check: CCOC(=O)Oc1c(C)nn(C)c(=O)c1-c1c(C)ccc2sccc12 [Compound 30]
10

----------
- Test system: pigweed (Amaranthus retroflexus)
- protocol-text: Test A preemergence, directed soil spray, visual injury rating
- Assay type: in vivo
- run-parameters: Amaranthus retroflexus, pre-emergence, 240 h, 125 g ai/ha, 0 is no effect, 100 is complete control, read-out: Plant response rating (0 to 100 scale), Pigweed
Recorded pest or weed control at 125 g/ha, one value per entry.
Answer in %, number only, no unit symbol.

Lab note: need pest or weed control at 125 g/ha with pigweed (Amaranthus retroflexus) for entry Cn1nc(Cl)c(O)c(-c2nccc3ccccc23)c1=O , please look it up.
20

Another compound to check: CC(=O)Oc1c(C)nn(C)c(=O)c1-c1cccc2cc(C)oc12
40

Another compound to check: Cc1ccc2sccc2c1-c1c(O)c(C)nn(C)c1=O
40

Another compound to check: Cc1nn(C)c(=O)c(-c2ccc(F)c3ccoc23)c1O
80

Another compound to check: CC(=O)Oc1c(C)nn(C)c(=O)c1-c1c(C)ccc2cc(C)oc12
100

----------
- Test system: barnyardgrass (Echinochloa crus-galli)
- protocol-text: Test A preemergence, directed soil spray, visual injury rating
- Assay type: in vivo
- run-parameters: 125 g ai/ha, 0 is no effect, 100 is complete control
Recorded Plant response rating (0 to 100 scale), Barnyardgrass, one value per entry.
Keep the answer to the number alone.

Observe how each entry below is paired with its result.
Cc1nn(C)c(=O)c(-c2ccc(Cl)c3ccoc23)c1O : 0
CCC(=O)Oc1c(C)nn(C)c(=O)c1-c1cccc2sccc12 : 0
CCOC(=O)Oc1c(C)nn(C)c(=O)c1-c1cccc2sccc12 : 0
Cc1nn(C)c(=O)c(-c2ccc(Cl)c3sccc23)c1OC(=O)c1ccccc1 : 0
Cc1cc2c(-c3c(O)c(C)nn(C)c3=O)ccc(Cl)c2o1 : 0

Would you mind telling me what Plant response rating (0 to 100 scale), Barnyardgrass value was observed for Cn1nc(Cl)c(O)c(-c2ccc(F)c3ccoc23)c1=O ?
90

Another compound to check: Cn1ncc(O)c(-c2cccc3cnccc23)c1=O
0

Another compound to check: Cc1nn(C)c(=O)c(-c2ccc(Cl)c3sccc23)c1O
0

Another compound to check: CC(=O)Oc1c(C)nn(C)c(=O)c1-c1ccc(Cl)c2cc(C)oc12
60

----------
Recorded Foxtail, Giant plant response rating, one value per entry.
- Tested on: foxtail, giant (giant foxtail, Setaria faberii)
- protocol-text: Test A postemergence application, visual injury rating
- Type: in vivo
- run-parameters: 125 g ai/ha, 0 to 100 scale, 0 no effect, 100 complete control
Keep the answer to the number alone.

Cc1cc2c(Cl)ccc(-c3c(O)c(C)nn(C)c3=O)c2o1 [Compound 43] : 0
CCC(=O)Oc1c(C)nn(C)c(=O)c1-c1cccc2cc(C)oc12 [Compound 26] : 30

# next molecule below
Would you mind telling me what Foxtail, Giant plant response rating value was observed for CCC(=O)Oc1c(C)nn(C)c(=O)c1-c1c(C)ccc2cc(C)oc12 [Compound 22] ?
70

----------
- System: ryegrass, It. (Italian ryegrass, Lolium multiflorum)
- protocol-text: Test A postemergence application, visual injury rating
- Type: in vivo
- run-parameters: 125 g ai/ha, 0 to 100 scale, 0 no effect, 100 complete control
Checkbox rule: Ryegrass, It. plant response rating lower than 40 = label 1; Ryegrass, It. plant response rating not lower than 40 = label 0.

Example entries and their recorded answers appear below.
Cc1ccc2sc(Cl)cc2c1-c1c(O)c(C)nn(C)c1=O : label 0
Cn1nc(Cl)c(O)c(-c2cccc3c2nnn3C)c1=O : label 1
CCOC(=O)Oc1c(C)nn(C)c(=O)c1-c1c(C)sc2ncc(C)cc12 : label 1
CC(=O)Oc1c(C)nn(C)c(=O)c1-c1ccc(Cl)c2ccsc12 : label 0
CCC(=O)Oc1c(C)nn(C)c(=O)c1-c1c(Br)ccc2c1cnn2C : label 1
CC(=O)Oc1c(C)nn(C)c(=O)c1-c1ccc(Cl)c2oc(C)cc12 : label 0
Cc1cnc2sc(C)c(-c3c(O)c(C)nn(C)c3=O)c2c1 : label 1
CCc1sc2ncccc2c1-c1c(OC(=O)OC(C)C)c(C)nn(C)c1=O : label 1

Record Cn1ncc(O)c(-c2cccc3cnccc23)c1=O : is its Ryegrass, It. plant response rating strictly below 40?
label 1

Another compound to check: CCC(=O)Oc1c(C)nn(C)c(=O)c1-c1ccc(Cl)c2cc(C)oc12
label 0

Another compound to check: Cc1cnc2sc(C)c(-c3c(OC(=O)OC(C)C)c(C)nn(C)c3=O)c2c1
label 1

Another compound to check: Cc1nn(C)c(=O)c(-c2cccc3scnc23)c1O
label 1

Another compound to check: Cc1nn(C)c(=O)c(-c2ccc(Cl)c3sccc23)c1OC(=O)c1ccccc1
label 1

Another compound to check: Cc1nn(C)c(=O)c(-c2cccc3sccc23)c1O
label 0

Another compound to check: CCC(=O)Oc1c(C)nn(C)c(=O)c1-c1ccc(Cl)c2ccsc12
label 0

Another compound to check: CCC(=O)Oc1c(C)nn(C)c(=O)c1-c1c(C(F)(F)F)ccc2cc(C)oc12
label 1
